# TARGET_ENTITY: Sodium-dependent dopamine transporter (Rattus norvegicus, UniProt P23977)
# Sequence (P23977 whole entry): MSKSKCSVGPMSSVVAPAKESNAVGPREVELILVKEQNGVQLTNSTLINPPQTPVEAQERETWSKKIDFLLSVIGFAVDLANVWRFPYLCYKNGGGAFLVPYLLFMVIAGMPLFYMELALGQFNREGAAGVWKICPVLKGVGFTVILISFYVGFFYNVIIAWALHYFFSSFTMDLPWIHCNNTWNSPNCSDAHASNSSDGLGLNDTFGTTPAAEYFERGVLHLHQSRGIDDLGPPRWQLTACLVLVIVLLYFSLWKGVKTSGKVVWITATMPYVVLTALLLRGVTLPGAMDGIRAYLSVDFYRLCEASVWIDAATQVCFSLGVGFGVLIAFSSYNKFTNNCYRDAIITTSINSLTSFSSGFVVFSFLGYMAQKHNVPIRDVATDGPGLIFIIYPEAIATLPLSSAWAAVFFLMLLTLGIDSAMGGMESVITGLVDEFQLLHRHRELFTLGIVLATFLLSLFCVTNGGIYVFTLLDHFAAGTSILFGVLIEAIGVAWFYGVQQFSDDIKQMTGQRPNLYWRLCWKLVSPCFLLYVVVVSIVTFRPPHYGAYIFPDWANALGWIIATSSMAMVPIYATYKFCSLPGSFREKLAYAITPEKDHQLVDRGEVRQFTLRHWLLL
# ASSAY_NAME: Inhibition of [125I]RTI-55 binding to dopamine transport sites in rat striatal membranes.
Define the label as true when IC50 is strictly less than 200 nM and as false in all remaining cases.

Q. In the record for CCC(=O)C1C(c2ccc(C(C)(C)C)cc2)CC2CCC1N2C (centres undefined) , is IC50 less than 200 nM?
A. false

Q. In the record for CCC(=O)C1C(C2CCCCC2)CC2CCC1N2C (centres undefined) , is IC50 less than 200 nM?
A. false

Q. In the record for CCC(=O)C1C(c2ccc(C)cc2)CC2CCC1N2C (single isomer, unassigned; (+)) , is IC50 less than 200 nM?
A. true

Q. In the record for CC(=O)C1C(c2ccc3ccccc3c2)CC2CCC1N2C (centres undefined) , is IC50 less than 200 nM?
A. true

Q. In the record for CCC(=O)C1C(CC)CC2CCC1N2C (centres undefined) , is IC50 less than 200 nM?
A. false

Q. In the record for CC(=O)C1C(c2ccc(F)cc2)CC2CCC1N2C (centres undefined) , is IC50 less than 200 nM?
A. true

Q. In the record for CCC(=O)C1C(c2ccc(C(C)C)cc2)CC2CCC1N2C (centres undefined) , is IC50 less than 200 nM?
A. false

Q. In the record for CC(=O)C1C(c2ccc(C)cc2)CC2CCC1N2C (centres undefined) , is IC50 less than 200 nM?
A. true

Q. In the record for CCc1ccc(C2CC3CCC(C2C(C)=O)N3C)cc1 (centres undefined) , is IC50 less than 200 nM?
A. true

====

Entries with their measured Ki, system Sodium-dependent serotonin transporter (Rattus norvegicus):
Give bare numbers, in nM.

Worked cases, answers included:
# MOLECULE, MEASURED_ENDPOINT, UNITS_OF_MEASURE, EXPERIMENTAL_RESULT
measured = [
    ("CCC(=O)C1C(c2ccc(F)cc2)CC2CCC1N2C (stereo unspecified)", "Ki", "nM", 630),
    ("CCC(=O)C1C(c2cccc3ccccc23)CC2CCC1N2C (stereo unspecified)", "Ki", "nM", 20.9),
    ("CC(=O)C1C(c2cccc3ccccc23)CC2CCC1N2C (stereo unspecified)", "Ki", "nM", 25.6),
    ("CCC(=O)C1C(c2ccc(C)cc2)CC2CCC1N2C (stereo in doubt; 12a)", "Ki", "nM", 131),
    ("CCC(=O)C1C(c2ccc(C(C)(C)C)cc2)CC2CCC1N2C (stereo unspecified)", "Ki", "nM", 1770),
    ("CC(=O)C1C(c2ccccc2)CC2CCC1N2C (stereo unspecified)", "Ki", "nM", 1360),
    ("CCc1ccc(C2CC3CCC(C2C(C)=O)N3C)cc1 (stereo unspecified)", "Ki", "nM", 78.2),
    ("CCC(=O)C1C(c2ccc(C)cc2)CC2CCC1N2C (single isomer, unassigned; (+))", "Ki", "nM", 74),
    ("CCC(=O)C1C(c2ccc(C(C)C)cc2)CC2CCC1N2C (stereo unspecified)", "Ki", "nM", 35.8),
]

Note: attention shifts to another entry.
Query CCC(=O)C1C(c2ccc3ccccc3c2)CC2CCC1N2C (stereo in doubt; (+)-21a) yields Ki of 0.121
